biological target: androgen receptor (Homo sapiens, UniProt P10275, Q868H); construct: a human breast tumor cell line expressing androgen receptor; endogenous in cells; host or cells: MDA-MB453-MMTV clone 54-19 (only the MMTV-luciferase reporter was transfected); experiment: AR antagonist cell assay (MDA-MB453-MMTV clone 54-19, luciferase reporter); type: cell-based; conditions: MDA-MB453-MMTV clone 54-19 cells, 100 pM DHT, 17 hr; mean of multiple tests; read-out: AR Cell IC50
Recorded measurements of IC50, one per entry

Recorded results for 2 compounds are shown here.
CC1CCCC(C)C1Oc1ccc(C#N)c(C(F)(F)F)c1 (stereo not drawn) | > 1000 nM
C=CCC1(Oc2ccc(C#N)c(C(F)(F)F)c2)CCCCC1 | > 1000 nM

Exercise: Data request, read-out IC50, for `C[C@H]1CCC[C@@H]1Oc1ccc(C#N)c(Cl)c1`
Solution: < 0.32 nM

###

Target: hAR (Homo sapiens, UniProt P10275)
Construct: made in house; host or cells: baculovirus/Sf9 insect cells
Sequence (P10275 1-920): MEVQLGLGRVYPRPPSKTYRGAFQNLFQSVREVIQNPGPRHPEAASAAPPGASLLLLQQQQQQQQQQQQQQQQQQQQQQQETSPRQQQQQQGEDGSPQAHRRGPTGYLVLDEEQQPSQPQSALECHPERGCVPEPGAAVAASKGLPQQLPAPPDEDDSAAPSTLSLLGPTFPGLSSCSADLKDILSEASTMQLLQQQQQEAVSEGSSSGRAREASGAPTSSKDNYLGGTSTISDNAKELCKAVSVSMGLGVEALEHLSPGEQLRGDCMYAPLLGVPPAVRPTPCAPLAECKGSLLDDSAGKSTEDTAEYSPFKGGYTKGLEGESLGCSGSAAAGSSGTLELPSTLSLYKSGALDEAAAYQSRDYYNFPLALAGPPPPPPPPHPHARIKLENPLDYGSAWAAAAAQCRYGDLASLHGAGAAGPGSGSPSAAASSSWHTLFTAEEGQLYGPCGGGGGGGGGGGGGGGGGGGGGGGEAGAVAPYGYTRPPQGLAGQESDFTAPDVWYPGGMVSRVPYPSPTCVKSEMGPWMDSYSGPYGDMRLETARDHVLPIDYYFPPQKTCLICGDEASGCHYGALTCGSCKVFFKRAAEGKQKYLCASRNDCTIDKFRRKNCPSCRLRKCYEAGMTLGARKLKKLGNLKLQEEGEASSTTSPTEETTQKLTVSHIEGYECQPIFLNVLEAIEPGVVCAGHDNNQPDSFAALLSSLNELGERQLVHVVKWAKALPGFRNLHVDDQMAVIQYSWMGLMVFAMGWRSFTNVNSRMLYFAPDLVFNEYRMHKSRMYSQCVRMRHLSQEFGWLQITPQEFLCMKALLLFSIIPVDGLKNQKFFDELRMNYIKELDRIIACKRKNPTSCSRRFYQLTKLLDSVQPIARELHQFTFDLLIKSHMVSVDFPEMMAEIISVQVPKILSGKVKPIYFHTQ
Test: Competitive binding analysis on baculovirus/Sf9 generated hAR extracts with 3H-DHT tracer
Details: hAR extract, 1 nM 3H-DHT, one hour at 4° C.; mean of multiple tests; read-out: AR Binding IC50
Quick rule for you: IC50 under 0.3 µM gets 1 (yes), anything else gets 0 (no).

The examples below pair each entry with its known result.
C[C@H]1CC[C@@H](Oc2ccc(C#N)c(Cl)c2)CC1 [Example 31] | 1 (yes)
CC1(O)C[C@@H]2C[C@H]1CC2Oc1ccc(C#N)c(C(F)(F)F)c1 (stereo in doubt) | 0 (no)
CC(C)[C@H]1CC[C@H](C)C[C@@H]1Oc1ccc(C#N)cc1Cl | 1 (yes)
CO[C@H]1CCCC[C@@H]1Oc1ccc(C#N)c(C(F)(F)F)c1 (relative stereo) | 1 (yes)

We next turn to a different compound, shown below.
Exercise: Take the compound `CC1(C)CC(Oc2ccc(C#N)cc2Cl)CC(C)(C)C1` and say whether its IC50 is less than 0.3 µM.
Solution: 0 (no)

Reference source for all entries: patent US7670613B2
